What Microsomal Stability Rat was measured for each of the following?
Type: in vitro ADME, Rat
Details: clearance in microsomes
*1 amine or outer side, *2 acyl side, *3 side chain or, on linkers, in order; H or OH if unused. Where a SMILES comes first, the peptide text is derived from it. [ ]: non-standard residue; d: D form. Trp(1-(1,1-Me2-allyl)) = C=CC(C)(C)n1cc(C[C@H](N)C(=O)O)c2ccccc21; Ala(3R-Me,3-isobutenyl) = CC(C)=C[C@@H](C)[C@H](N)C(=O)O; X1 = C#CCn1cc(C[C@H](N[*:1])C(=O)[*:2])c2ccccc21; X4 = C=CCO[C@H](c1ccccc1)[C@H](N[*:1])C(=O)[*:2]; NMeLeu(5-OH,4R) = CN[C@@H](C[C@@H](C)CO)C(=O)O; Phe(βR-OMe) = CO[C@H](c1ccccc1)[C@H](N)C(=O)O; Trp(1-Me) = Cn1cc(C[C@H](N)C(=O)O)c2ccccc21; NMeL = CN[C@@H](CC(C)C)C(=O)O
Give your result in %Qh as a bare value.

input: # Microsomal Stability Rat lookup, item CO[C@H](c1ccccc1)[C@@H]1NC(=O)[C@H](C)NC(=O)[C@H](C[C@@H](C)CO)N(C)C(=O)[C@H](Cc2cn(Cc3cn(CCOCCOCCOCCOCCn4cc(Cn5cc(C[C@H]6C(=O)N(C)[C@@H](C[C@@H](C)CO)C(=O)N[C@@H](C)C(=O)N[C@@H]([C@H](OC)c7ccccc7)C(=O)N[C@@H](C(C)C)C(=O)N(C)[C@@H](CC(C)C)C(=O)N[C@@H](C(C)C)C(=O)N6C)c6ccccc65)nn4)nn3)c3ccccc23)N(C)C(=O)[C@H](C(C)C)NC(=O)[C@H](CC(C)C)N(C)C(=O)[C@H](C(C)C)NC1=O [Compound 27]
output: 41

input: Another: CO[C@H](c1ccccc1)[C@@H]1NC(=O)[C@H](C)NC(=O)[C@H](C[C@@H](C)CO)N(C)C(=O)[C@H](Cc2cn(Cc3cn(CCOCCOCCOCCn4cc(Cn5cc(C[C@@H]6NC(=O)[C@H](C(C)C)NC(=O)[C@H](CC(C)C)N(C)C(=O)[C@H](C(C)C)NC(=O)[C@H]([C@H](OC)c7ccccc7)NC(=O)[C@H](C)NC(=O)[C@H](C[C@@H](C)CO)N(C)C6=O)c6ccccc65)nn4)nn3)c3ccccc23)NC(=O)[C@H](C(C)C)NC(=O)[C@H](CC(C)C)N(C)C(=O)[C@H](C(C)C)NC1=O [Compound 7]
output: 40

input: Another: C#CCn1cc(C[C@@H]2NC(=O)[C@H](C(C)C)NC(=O)[C@H](CC(C)C)N(C)C(=O)[C@H](C(C)C)NC(=O)[C@H](Cc3ccccc3)NC(=O)[C@H](C)NC(=O)[C@H](C[C@@H](C)CO)N(C)C2=O)c2ccccc21 [SI-72] (cyclo(AFV[NMeL]V[X1][NMeLeu(5-OH,4R)]))
output: 87

input: Another: C=CCO[C@H](c1ccccc1)[C@@H]1NC(=O)[C@H](C)NC(=O)[C@H](C[C@@H](C)CO)N(C)C(=O)[C@H](Cc2cn(C)c3ccccc23)NC(=O)[C@H](C(C)C)NC(=O)[C@H](CC(C)C)N(C)C(=O)[C@H](C(C)C)NC1=O [Compound 14] (cyclo(A[X4]V[NMeL]V[Trp(1-Me)][NMeLeu(5-OH,4R)]))
output: 84

input: Another: CO[C@H](c1ccccc1)[C@@H]1NC(=O)[C@H](C)NC(=O)[C@H](C[C@@H](C)CO)N(C)C(=O)[C@H](Cc2cn(C)c3ccccc23)NC(=O)[C@H](CCC(=O)N(C)C)NC(=O)[C@H](CC(C)C)N(C)C(=O)[C@H](C(C)C)NC1=O [SI-74] (cyclo(A[Phe(βR-OMe)]V[NMeL]E(NMe2)[Trp(1-Me)][NMeLeu(5-OH,4R)]))
output: 85

input: Another: C=CC(C)(C)n1cc(C[C@@H]2NC(=O)[C@H]([C@H](C)C=C(C)C)NC(=O)[C@H](CC(C)C)N(C)C(=O)[C@H](C(C)C)NC(=O)[C@H]([C@H](OC)c3ccccc3)NC(=O)[C@H](C)NC(=O)[C@H](C[C@@H](C)CO)N(C)C2=O)c2ccccc21 [dCymC] (cyclo([Trp(1-(1,1-Me2-allyl))][NMeLeu(5-OH,4R)]A[Phe(βR-OMe)]V[NMeL][Ala(3R-Me,3-isobutenyl)]))
output: 38

Attribution: paper PMC10914731
